Numbers sourced from patent US20190367516A1.

target: human M2 receptor (Homo sapiens); conditions: Receptor activity EC50, M2-GIRK1/4 activation test, acetylcholine at EC20; allosteric potency; in some cases mean values from two or more determinations
Sequence (P08172 whole entry): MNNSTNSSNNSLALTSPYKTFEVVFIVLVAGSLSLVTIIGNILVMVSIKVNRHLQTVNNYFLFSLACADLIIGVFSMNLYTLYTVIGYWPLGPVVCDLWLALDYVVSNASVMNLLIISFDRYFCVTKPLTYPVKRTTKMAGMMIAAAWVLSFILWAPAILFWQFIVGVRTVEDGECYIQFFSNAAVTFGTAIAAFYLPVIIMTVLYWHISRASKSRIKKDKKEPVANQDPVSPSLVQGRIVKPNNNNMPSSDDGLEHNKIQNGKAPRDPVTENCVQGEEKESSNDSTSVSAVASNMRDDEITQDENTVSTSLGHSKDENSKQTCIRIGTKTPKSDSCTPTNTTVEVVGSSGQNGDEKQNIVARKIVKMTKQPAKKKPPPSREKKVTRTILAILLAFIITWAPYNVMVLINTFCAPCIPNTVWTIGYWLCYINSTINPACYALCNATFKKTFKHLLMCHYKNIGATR
reportedEndpoint: EC50 (nM)
Numbers only, in nM.

Example entries and their recorded answers appear below.
| compound | reportedEndpoint | readoutUnit | observedResult |
| --- | --- | --- | --- |
| O=C(NC(c1ccccc1Cl)C(F)(F)F)c1cn(-c2ccccc2F)c2nc(N3CCC(O)C3=O)ccc2c1=O (single isomer, unassigned) [Example 290] | EC50 | nM | 312 |
| CCC(NC(=O)c1cn(-c2ccc(F)cc2F)c2nc(N(C)CC(F)F)ccc2c1=O)C(F)(F)F (racemic) [Example 114] | EC50 | nM | 98 |

Let us move to another entry and its EC50.
Ask: I would be grateful if you could share the reported EC50 for CC(C)(C)[C@H](NC(=O)c1cn(-c2c(F)cc(F)cc2F)c2nc(N3C[C@@H](O)[C@H](O)C3)ccc2c1=O)C(F)(F)F [Example 369] .
Result: 8

====

Provide the reported Emax of each item.
molecular target: human M2 receptor (Homo sapiens); settings: read-out: Efficiency, boosting of the acetylcholine effect at EC20 acetylcholine concentration; M2-GIRK1/4 reporter cells
Numbers only, in %.

Example entries and their recorded answers appear below.
| compound | reportedEndpoint | readoutUnit | observedResult |
| --- | --- | --- | --- |
| O=C(NC12CC(F)(C1)C2)c1cn(-c2c(F)cc(F)cc2Cl)c2nc(N3C[C@@H](O)[C@H](O)C3)ccc2c1=O | Emax | % | 95.5 |
| CC[C@H](NC(=O)c1cn(-c2c(F)cc(F)cc2F)c2nc(N3C[C@@H](NC(C)=O)CC3=O)ccc2c1=O)C(F)(F)F | Emax | % | 88.5 |
| O=C(NC(c1ccccc1Cl)C(F)(F)F)c1cn(-c2c(F)cc(F)cc2F)c2nc(N3C[C@@H](O)[C@H](O)C3)ccc2c1=O (single isomer, unassigned) [Example 561] | Emax | % | 95 |
| CC(NC(=O)c1cn(-c2c(F)cc(F)cc2F)c2nc(N3C[C@@H](O)CC3=O)ccc2c1=O)C1CCC1 (mixture of isomers) | Emax | % | 89 |
| CC[C@@H](NC(=O)c1cn(-c2c(Cl)cccc2Cl)c2nc(N3CC4CC4(O)C3)ccc2c1=O)C(F)(F)F (stereo partly drawn) | Emax | % | 80 |

Ask: I would be grateful if you could share the reported Emax for `C[C@@H]1CN(c2ccc3c(=O)c(C(=O)NC(C)(C)C(F)F)cn(-c4c(F)cc(F)cc4F)c3n2)C(=O)N1` .
Result: 100

====

molecular target: human M2 receptor (Homo sapiens); format: cell-based; settings: shift in the acetylcholine dose-response curve (Allosteric EC50 shift, GraphPad PRISM); α >1 = positive cooperativity
// classify(record): look up Cooperativity (alpha factor) in ranges low class (below 10), middle class (10 to below 30), high class (30 or more)

| compound | labelValue |
| --- | --- |
| CC(NC(=O)c1cn(-c2ccc(F)cc2F)c2nc(NCC(F)F)ccc2c1=O)C(F)(F)F (racemic) | low class |
| O=C(NC12CC3CC(CC(C3)C1)C2)c1cn(-c2ccc(F)cc2F)c2nc(NCC(F)(F)F)ccc2c1=O | middle class |
| CC(C)(C)[C@H](NC(=O)c1cn(-c2c(F)cc(F)cc2F)c2nc(N3C[C@@H](O)[C@H](O)C3)ccc2c1=O)C(F)(F)F | high class |
| O=C(NC12CC(C1)C2)c1cn(-c2c(F)cc(F)cc2F)c2nc(N3C[C@@H](O)CC3=O)ccc2c1=O | high class |

Ask: Which category does the recorded Cooperativity (alpha factor) put CC[C@@H](NC(=O)c1cn(-c2ccc(F)cc2F)c2nc(N3CC4CC4(O)C3)ccc2c1=O)C(F)(F)F (mixture of isomers) [Example 267] in?
Result: middle class

Ask: Can you handle CCC(NC(=O)c1cn(-c2ccc(F)cc2F)c2nc(N3CCCC3=O)ccc2c1=O)C(F)(F)F (stereo not drawn) next?
Result: low class

Ask: Can you handle CC[C@@H](NC(=O)c1cn(-c2c(F)cccc2F)c2nc(N3CCC(O)C3=O)ccc2c1=O)C(F)(F)F (single isomer, unassigned) next?
Result: high class

Ask: Can you handle CCC(NC(=O)c1cn(-c2ccc(F)cc2F)c2nc(N3CCN(C(=O)OC)CC3)ccc2c1=O)C(F)(F)F (racemic) [Example 23] next?
Result: middle class

Ask: Can you handle `CC[C@H](NC(=O)c1cn(-c2c(F)cc(F)cc2Cl)c2nc(N3CCC(C)(C)C3=O)ccc2c1=O)C(F)(F)F` next?
Result: middle class

Ask: Can you handle `O=C(Nc1c(Cl)cccc1Cl)c1cn(-c2ccc(F)cc2F)c2nc(NCC(F)(F)F)ccc2c1=O` next?
Result: middle class
